src = ChEMBL document CHEMBL1641534

Catalogue of compounds with associated MIC
# Tested on: Klebsiella pneumoniae
# PROTOCOL_TEXT: Antibacterial activity against Klebsiella pneumoniae ATCC 13883 after 12 to 18 hrs by twofold dilution method
# Format: functional
Write the number in µg/mL without appending the unit.

As a guide, the following entries are already answered.
>>> data_value("CCCCCCCCCCCCn1n[n+](C)c2c1C(=O)c1ccccc1C2=O.[Cl-]")
2
>>> data_value("NC[C@@H]1O[C@H](O[C@H]2[C@@H](O)[C@H](O[C@@H]3[C@@H](O)[C@H](N)C[C@H](N)[C@H]3O[C@H]3O[C@H](CN)[C@@H](O)[C@H](O)[C@H]3N)O[C@@H]2CO)[C@H](N)[C@@H](O)[C@@H]1O [FRAMYCETIN]")
2
>>> data_value("CCCCn1n[n+](C)c2c1C(=O)c1ccccc1C2=O.[Cl-]")
32
>>> data_value("CCCCCn1n[n+](C)c2c1C(=O)c1ccccc1C2=O.[Cl-]")
32
>>> data_value("CCn1n[n+](C)c2c1C(=O)c1ccccc1C2=O.[Cl-]")
32
>>> data_value("Cn1n[n+](C)c2c1C(=O)c1ccccc1C2=O.[Cl-]")
64

Turning now to a further record.
Lab note: measured MIC of CCCCCCCCn1n[n+](C)c2c1C(=O)c1ccccc1C2=O.[Cl-] was 8

---

# System: Staphylococcus aureus
# PROTOCOL_TEXT: microbe, parasite or virus in culture
# Type: functional
# STATED_CONDITIONS: ATCC 25923
# Description: Antibacterial activity against Staphylococcus aureus ATCC 25923 after 12 to 18 hrs by twofold dilution method
QUANTITY_MEASURED: MIC (µg/mL)
Write the number in µg/mL without appending the unit.

As a guide, the following entries are already answered.
>>> data_value("NCC[C@H](O)C(=O)N[C@@H]1C[C@H](N)[C@@H](O[C@H]2O[C@H](CN)[C@@H](O)[C@H](O)[C@H]2O)[C@H](O)[C@H]1O[C@H]1O[C@H](CO)[C@@H](O)[C@H](N)[C@H]1O [AMIKACIN]")
0.5
>>> data_value("Cn1n[n+](C)c2c1C(=O)c1ccccc1C2=O.[Cl-]")
4
>>> data_value("CCCCCn1n[n+](C)c2c1C(=O)c1ccccc1C2=O.[Cl-]")
2

Turning now to a further record.
Lab note: measured MIC of CCCCCCCCCCCCCCCC[N+](C)(C)Cc1ccccc1.[Cl-] [CETALKONIUM CHLORIDE] was 2

---

# Tested on: Staphylococcus aureus
# PROTOCOL_TEXT: microbe, parasite or virus in culture
# Format: functional
# STATED_CONDITIONS: ATCC 33591
# Description: Antibacterial activity against methicillin-resistant Staphylococcus aureus ATCC 33591 after 12 to 18 hrs by twofold dilution method
Catalogue of compounds with associated MIC

>>> data_value("CCCCCCCCCCCCn1n[n+](C)c2c1C(=O)c1ccccc1C2=O.[Cl-]")
"0.25 µg/mL"

Summary: NC[C@H]1O[C@H](O[C@H]2[C@H](O)[C@@H](O[C@H]3O[C@H](CO)[C@@H](O)[C@H](N)[C@H]3O)[C@H](N)C[C@@H]2N)[C@H](O)[C@@H](O)[C@@H]1O , Staphylococcus aureus, MIC = 125 µg/mL

Summary: C[n+]1nn(C2CCNCC2)c2c1C(=O)c1ccccc1C2=O.[Cl-] , Staphylococcus aureus, MIC = 2 µg/mL

Summary: CCCCCn1n[n+](C)c2c1C(=O)c1ccccc1C2=O.[Cl-] , Staphylococcus aureus, MIC = 1 µg/mL

Summary: CCCCn1n[n+](C)c2c1C(=O)c1ccccc1C2=O.[Cl-] , Staphylococcus aureus, MIC = 1 µg/mL

Summary: Cn1n[n+](C)c2c1C(=O)c1ccccc1C2=O.[Cl-] , Staphylococcus aureus, MIC = 4 µg/mL
